Consider the following compounds and their measured Ratio IC50 readings.
- assay text: Selectivity ratio of IC50 for MMP8 to IC50 for MMP13

Guide cases for Ratio IC50, answers given:
[[record]]
cpd_smiles = "CNC(=O)[C@@H](NC(=O)c1ccc(-c2cccc(CNC(=O)c3cccc(C(F)(F)F)n3)c2)o1)C1CCOCC1"
result = 7100

[[record]]
cpd_smiles = "CNC(=O)[C@H](NC(=O)c1ccc(-c2cccc(CNC(=O)c3ncccc3C)c2)o1)C1CCCCC1"
result = "> 200"

[[record]]
cpd_smiles = "CNC(=O)[C@H](NC(=O)c1ccc(-c2cccc(CNC(=O)c3nccn3C)c2)o1)C1CCCCC1"
result = "> 64"


Prompt: For the compound CNC(=O)[C@H](NC(=O)c1ccc(-c2cccc(CNC(=O)c3cc(C)n(C)n3)c2)o1)C1CCCCC1 , give its measured Ratio IC50 value.
Response: > 280
